// provenance: patent US12509421B2

assay_system: δOR (Homo sapiens, UniProt P41143)
Sequence (P41143 whole entry): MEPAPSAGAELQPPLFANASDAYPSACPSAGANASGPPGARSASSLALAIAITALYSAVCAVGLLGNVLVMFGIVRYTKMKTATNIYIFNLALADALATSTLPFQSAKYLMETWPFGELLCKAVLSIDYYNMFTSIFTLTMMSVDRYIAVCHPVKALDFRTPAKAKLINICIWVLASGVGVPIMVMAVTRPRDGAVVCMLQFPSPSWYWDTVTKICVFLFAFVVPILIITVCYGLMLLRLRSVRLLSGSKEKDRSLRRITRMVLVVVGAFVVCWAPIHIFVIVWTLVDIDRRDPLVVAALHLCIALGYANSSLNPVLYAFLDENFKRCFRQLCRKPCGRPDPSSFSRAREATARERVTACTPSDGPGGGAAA
observation_type: pKi
Answers are plain numbers, as −log10 of the molar value.

// lookup pKi for CN(C)C[C@@H]1CN(S(=O)(=O)Cc2ccccc2)CC[C@@]1(O)c1cccc(O)c1.Cl [Example 22 of CN201911076305.X, hydrochloride, reference compound] 5.96

====

assay_system: hERG potassium channel (Homo sapiens)
Sequence (Q12809 whole entry): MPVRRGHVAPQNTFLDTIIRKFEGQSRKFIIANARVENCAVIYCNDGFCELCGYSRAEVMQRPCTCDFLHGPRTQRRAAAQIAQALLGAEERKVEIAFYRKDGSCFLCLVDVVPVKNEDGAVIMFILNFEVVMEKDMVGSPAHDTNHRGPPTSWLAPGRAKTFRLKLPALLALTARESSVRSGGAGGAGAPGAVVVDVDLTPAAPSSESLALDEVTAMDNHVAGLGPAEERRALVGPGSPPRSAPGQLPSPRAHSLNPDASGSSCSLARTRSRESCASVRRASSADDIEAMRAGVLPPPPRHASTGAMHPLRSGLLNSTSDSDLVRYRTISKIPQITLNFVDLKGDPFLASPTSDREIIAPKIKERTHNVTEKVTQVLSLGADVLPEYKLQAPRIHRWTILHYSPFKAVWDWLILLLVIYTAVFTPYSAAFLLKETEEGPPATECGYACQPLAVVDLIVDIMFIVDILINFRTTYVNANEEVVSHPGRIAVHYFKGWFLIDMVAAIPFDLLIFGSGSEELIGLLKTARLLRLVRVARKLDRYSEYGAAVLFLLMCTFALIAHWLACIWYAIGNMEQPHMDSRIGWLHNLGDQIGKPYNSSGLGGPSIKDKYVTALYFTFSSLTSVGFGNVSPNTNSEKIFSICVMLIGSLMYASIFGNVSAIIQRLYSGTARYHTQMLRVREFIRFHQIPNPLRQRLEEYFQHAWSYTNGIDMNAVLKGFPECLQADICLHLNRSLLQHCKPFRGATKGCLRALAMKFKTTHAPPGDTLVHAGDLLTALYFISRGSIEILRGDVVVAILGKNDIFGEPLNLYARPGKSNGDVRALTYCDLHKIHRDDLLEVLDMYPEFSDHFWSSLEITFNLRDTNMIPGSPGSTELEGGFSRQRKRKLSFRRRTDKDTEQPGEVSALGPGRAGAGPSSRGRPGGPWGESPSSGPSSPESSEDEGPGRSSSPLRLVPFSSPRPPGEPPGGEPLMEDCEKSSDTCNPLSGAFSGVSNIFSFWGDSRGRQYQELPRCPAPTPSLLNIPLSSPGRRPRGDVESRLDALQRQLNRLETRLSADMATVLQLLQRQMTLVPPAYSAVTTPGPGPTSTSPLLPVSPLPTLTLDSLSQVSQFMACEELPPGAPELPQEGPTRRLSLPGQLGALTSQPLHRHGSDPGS
assay_explanation: hERG potassium channel whole-cell patch clamp (HEK293)
Type: cell-based
Design: expressed in transfected cells; host or cells: HEK293 cell line
condition_label: HEK293 cells stably expressing hERG, whole-cell patch clamp, room temperature; read-out: Half-inhibition concentration of compounds to be tested on hERG (IC50)
Description: The rapidly activated potassium channel encoded by human ether-a-go-go-related gene (hERG) is an important ion channel involved in the formation of phase 3 repolarization of myocardial action potential. […] Capillary glass tube is drawn into recording electrode by microelectrode drawing instrument. […] Then the slow capacitance is compensated and the film capacitance and series resistance are recorded. […]
Counter-ions that a name gives are not always drawn.
Please go through the items and note down their pIC50.
Give bare numbers, as −log10 of the molar value.

Solved cases (2 shown):
[2H]C([2H])([2H])Oc1cccc(C2(O)CCN(S(=O)(=O)Cc3ccccc3)CC2CN(C([2H])([2H])[2H])C([2H])([2H])[2H])c1 (stereo not drawn) [I-3hydrochloride]
4.78
[2H]C([2H])([2H])Oc1cccc(C2(O)CCN(C(=O)Cc3cc(F)c(F)cc3F)CC2CN(C([2H])([2H])[2H])C([2H])([2H])[2H])c1 (stereo not drawn) [I-7hydrochloride]
4.67

I would be grateful if you could provide pIC50 for each of the following entries.
1. [2H]C([2H])([2H])N(C)CC1CN(S(=O)(=O)Cc2ccccc2)CCC1(O)c1cccc(OC)c1 (stereo not drawn) [I-1hydrochloride]
2. [2H]C([2H])([2H])N(C[C@@H]1CN(S(=O)(=O)Cc2ccccc2)CC[C@@]1(O)c1cccc(OC)c1)C([2H])([2H])[2H] [II-3hydrochloride]
3. [2H]C([2H])([2H])Oc1cccc([C@]2(O)CCN(S(=O)(=O)Cc3ccccc3)C[C@H]2CN(C([2H])([2H])[2H])C([2H])([2H])[2H])c1 [II-5hydrochloride]
4. [2H]C([2H])([2H])N(CC1CN(C(=O)Cc2cc(F)c(F)cc2F)CCC1(O)c1cccc(OC)c1)C([2H])([2H])[2H] (stereo not drawn) [I-8hydrochloride]

1: 4.89; 2: 4.83; 3: 4.62; 4: 4.77

====

assay_system: hERG potassium channel (Homo sapiens)
assay_explanation: hERG potassium channel whole-cell patch clamp (HEK293)
Assay type: cell-based
Set-up: expressed in transfected cells; host or cells: HEK293 cell line
Protocol: The rapidly activated potassium channel encoded by human ether-a-go-go-related gene (hERG) is an important ion channel involved in the formation of phase 3 repolarization of myocardial action potential. […] Capillary glass tube is drawn into recording electrode by microelectrode drawing instrument. […] Then the slow capacitance is compensated and the film capacitance and series resistance are recorded. […]
observation_type: IC50 (µM)
One number for each entry, in µM.

// lookup IC50 for COc1ccsc1CNCC[C@@]1(c2ccccn2)CCOC2(CCCC2)C1 [TRV-130, reference compound] 6.17

====

Test system: ICR mice
assay_explanation: Evaluation of side effects of constipation (defecation time, number, weight)
Type: in vivo
condition_label: 5 mg/kg; 10 mice per group; within 5 hours
Where a name gives a salt, the structure may show the parent alone.
observation_type: Number of defecating animals
Numbers only.

Solved cases (2 shown):
[2H]C([2H])([2H])N(C[C@@H]1CN(C(=O)Cc2cc(F)c(F)cc2F)CC[C@@]1(O)c1cccc(OC)c1)C([2H])([2H])[2H] [II-9hydrochloride]
2
[2H]C([2H])([2H])N(C)C[C@@H]1CN(S(=O)(=O)Cc2ccccc2)CC[C@@]1(O)c1cccc(OC)c1 [II-1hydrochloride]
3

Consider the record given below.
// lookup Number of defecating animals for [2H]C([2H])([2H])Oc1cccc([C@]2(O)CCN(S(=O)(=O)Cc3ccccc3)C[C@H]2CN(C([2H])([2H])[2H])C([2H])([2H])[2H])c1 [II-5hydrochloride] 2

====

assay_system: CYP 2D6 (Homo sapiens, UniProt P10635)
Sequence (P10635 whole entry): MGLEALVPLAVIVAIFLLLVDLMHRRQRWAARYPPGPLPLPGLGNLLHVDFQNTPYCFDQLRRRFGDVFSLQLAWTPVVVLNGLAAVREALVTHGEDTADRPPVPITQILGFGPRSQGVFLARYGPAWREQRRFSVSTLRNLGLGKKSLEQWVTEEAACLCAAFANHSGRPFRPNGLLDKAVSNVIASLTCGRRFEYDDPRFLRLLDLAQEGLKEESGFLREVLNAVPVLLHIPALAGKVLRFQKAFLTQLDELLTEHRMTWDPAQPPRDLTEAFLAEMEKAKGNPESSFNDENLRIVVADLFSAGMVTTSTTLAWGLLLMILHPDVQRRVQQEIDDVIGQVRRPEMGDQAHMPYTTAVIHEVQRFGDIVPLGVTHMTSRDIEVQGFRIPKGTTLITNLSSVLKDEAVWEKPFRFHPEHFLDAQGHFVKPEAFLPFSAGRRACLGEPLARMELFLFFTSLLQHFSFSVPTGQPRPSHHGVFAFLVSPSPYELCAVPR
assay_explanation: Inhibition of cytochrome P450 enzyme in human liver microsomes, CYP 2D6
Where a name gives a salt, the structure may show the parent alone.
observation_type: pIC50
One number for each entry, as −log10 of the molar value.

Solved cases (3 shown):
COc1ccsc1CNCC[C@@]1(c2ccccn2)CCOC2(CCCC2)C1 [TRV-130, reference compound]
5.14
[2H]C([2H])([2H])N(C[C@@H]1CN(C(=O)Cc2cc(F)c(F)cc2F)CC[C@@]1(O)c1cccc(OC)c1)C([2H])([2H])[2H] [II-9hydrochloride]
4.86
[2H]C([2H])([2H])N(C[C@@H]1CN(S(=O)(=O)Cc2ccccc2)CC[C@@]1(O)c1cccc(OC)c1)C([2H])([2H])[2H] [II-3hydrochloride]
4.86

I would be grateful if you could provide pIC50 for each of the following entries.
1. [2H]C([2H])([2H])N(C)C[C@@H]1CN(S(=O)(=O)Cc2ccccc2)CC[C@@]1(O)c1cccc(OC)c1 [II-1hydrochloride]
2. [2H]C([2H])([2H])Oc1cccc([C@]2(O)CCN(C(=O)Cc3cc(F)c(F)cc3F)C[C@H]2CN(C([2H])([2H])[2H])C([2H])([2H])[2H])c1 [II-11hydrochloride]
3. [2H]C([2H])([2H])Oc1cccc([C@]2(O)CCN(S(=O)(=O)Cc3ccccc3)C[C@H]2CN(C([2H])([2H])[2H])C([2H])([2H])[2H])c1 [II-5hydrochloride]
4. [2H]C([2H])([2H])N(C)C[C@@H]1CN(C(=O)Cc2cc(F)c(F)cc2F)CC[C@@]1(O)c1cccc(OC)c1 [II-7hydrochloride]

[4.89, 4.89, 4.81, 4.83]

====

assay_explanation: Metabolic stability in liver microsomes, human
condition_label: human, microsomes, pH 7.4
Counter-ions that a name gives are not always drawn.
observation_type: microsomal CLint at 2 μM (µL/min/mg)
Answers are plain numbers, in µL/min/mg.

Solved cases (3 shown):
[2H]C([2H])([2H])N(C)C[C@@H]1CN(S(=O)(=O)Cc2ccccc2)CC[C@@]1(O)c1cccc(OC)c1 [II-1hydrochloride]
663
[2H]C([2H])([2H])N(C)C[C@@H]1CN(C(=O)Cc2cc(F)c(F)cc2F)CC[C@@]1(O)c1cccc(OC)c1 [II-7hydrochloride]
681
[2H]C([2H])([2H])Oc1cccc([C@]2(O)CCN(C(=O)Cc3cc(F)c(F)cc3F)C[C@H]2CN(C([2H])([2H])[2H])C([2H])([2H])[2H])c1 [II-11hydrochloride]
711

Consider the record given below.
// lookup microsomal CLint at 2 μM for [2H]C([2H])([2H])N(C[C@@H]1CN(C(=O)Cc2cc(F)c(F)cc2F)CC[C@@]1(O)c1cccc(OC)c1)C([2H])([2H])[2H] [II-9hydrochloride] 673

====

assay_explanation: Metabolic stability in liver microsomes, rat
condition_label: rat, microsomes, pH 7.4
Structures can show the parent of a compound that is named as a salt.
observation_type: microsomal CLint at 2 μM (µL/min/mg)
One number for each entry, in µL/min/mg.

Solved cases (3 shown):
[2H]C([2H])([2H])N(C)C[C@@H]1CN(S(=O)(=O)Cc2ccccc2)CC[C@@]1(O)c1cccc(OC)c1 [II-1hydrochloride]
701
[2H]C([2H])([2H])Oc1cccc([C@]2(O)CCN(C(=O)Cc3cc(F)c(F)cc3F)C[C@H]2CN(C([2H])([2H])[2H])C([2H])([2H])[2H])c1 [II-11hydrochloride]
747
[2H]C([2H])([2H])N(C)C[C@@H]1CN(C(=O)Cc2cc(F)c(F)cc2F)CC[C@@]1(O)c1cccc(OC)c1 [II-7hydrochloride]
689

Consider the record given below.
// lookup microsomal CLint at 2 μM for [2H]C([2H])([2H])N(C[C@@H]1CN(C(=O)Cc2cc(F)c(F)cc2F)CC[C@@]1(O)c1cccc(OC)c1)C([2H])([2H])[2H] [II-9hydrochloride] 681

====

assay_system: μOR (Homo sapiens, UniProt P35372)
Construct: expressed in transfected cells; host or cells: CHO cells
Sequence (P35372 whole entry): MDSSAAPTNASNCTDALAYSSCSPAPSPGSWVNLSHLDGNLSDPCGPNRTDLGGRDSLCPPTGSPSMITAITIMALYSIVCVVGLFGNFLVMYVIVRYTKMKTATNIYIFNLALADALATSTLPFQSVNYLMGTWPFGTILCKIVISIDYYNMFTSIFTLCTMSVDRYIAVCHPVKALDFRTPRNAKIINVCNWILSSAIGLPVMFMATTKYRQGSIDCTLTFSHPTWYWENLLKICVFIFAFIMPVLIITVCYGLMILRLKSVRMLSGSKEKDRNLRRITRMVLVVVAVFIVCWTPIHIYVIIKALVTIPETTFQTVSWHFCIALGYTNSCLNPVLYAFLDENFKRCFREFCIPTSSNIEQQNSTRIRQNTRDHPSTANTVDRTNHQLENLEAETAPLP
assay_explanation: Opioid receptor competitive binding test, μOR
condition_label: compound at 10 μM; [3H]-labeled ligand; CHO cell membranes; ± SD of three measurements
Counter-ions that a name gives are not always drawn.
Please go through the items and note down their μOR binding rate.
Numbers only, in %.

I would be grateful if you could provide μOR binding rate for each of the following entries.
1. [2H]C([2H])([2H])N(C)C[C@@H]1CN(S(=O)(=O)Cc2ccccc2)CC[C@@]1(O)c1cccc(OC)c1 [II-1hydrochloride]
2. [2H]C([2H])([2H])Oc1cccc([C@]2(O)CCN(S(=O)(=O)Cc3ccccc3)C[C@H]2CN(C([2H])([2H])[2H])C([2H])([2H])[2H])c1 [II-5hydrochloride]
3. [2H]C([2H])([2H])N(C)C[C@@H]1CN(C(=O)Cc2cc(F)c(F)cc2F)CC[C@@]1(O)c1cccc(OC)c1 [II-7hydrochloride]
4. [2H]C([2H])([2H])N(C[C@@H]1CN(C(=O)Cc2cc(F)c(F)cc2F)CC[C@@]1(O)c1cccc(OC)c1)C([2H])([2H])[2H] [II-9hydrochloride]
5. [2H]C([2H])([2H])N(C[C@@H]1CN(S(=O)(=O)Cc2ccccc2)CC[C@@]1(O)c1cccc(OC)c1)C([2H])([2H])[2H] [II-3hydrochloride]
6. [2H]C([2H])([2H])N(CC1CN(C(=O)Cc2cc(F)c(F)cc2F)CCC1(O)c1cccc(OC)c1)C([2H])([2H])[2H] (centres unmarked) [I-8hydrochloride]
7. [2H]C([2H])([2H])Oc1cccc(C2(O)CCN(S(=O)(=O)Cc3ccccc3)CC2CN(C)C([2H])([2H])[2H])c1 (centres unmarked) [I-2hydrochloride]
8. [2H]C([2H])([2H])N(C)CC1CN(S(=O)(=O)Cc2ccccc2)CCC1(O)c1cccc(OC)c1 (centres unmarked) [I-1hydrochloride]

1: 27.9; 2: 27.1; 3: 26.1; 4: 27.1; 5: 28.2; 6: 22.8; 7: 24.75; 8: 23.95
